Assay: blockers of RIG-like receptor reporter activation – cell-based, Sendai virus stimulus, luciferase, 10K MLSCN set, TLR/RLR signaling modifier project, primary screen (AID 602276);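 note: firefly luciferase from ISG56 promoter only with Renilla not read in this screen; 0% = Sendai virus plus DMSO and 100% = medium plus DMSO without virus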
Settings: HEK293 RL24 IRF3 luciferase reporter, at 10 µM, hits give high values
result.type: inhibition (%)
Supply the numeric figure in %, leaving out any unit text.

# input Give the measured inhibition of Cn1c(=O)c2c(-c3ccncc3)c3c(nc2n(C)c1=O)-c1ccccc1C3=O .
# output 14.2

# input Entry under review: O=C(CSc1nc(C2CCCCC2)n(-c2ccccc2)n1)NCCN1C(=O)CSC1=O . Reported inhibition?
# output 15.1

# input So what does the record say about inhibition for Cc1nn(-c2ccccc2)c2c1C(O)n1c(nc3ccccc31)S2 (stereo unspecified) ?
# output 14

# input # query: inhibition of entry O=C(O)CCCc1nc(-c2ccccc2)no1
# output 16.6

# input # lookup: inhibition of Cc1cc(=O)[nH]c(S/C=C/c2ccccc2)n1
# output -28.9

# input Consider the molecule CCOc1ccccc1C1CC(=O)Nc2cc3c(cc21)OCO3 (stereo unspecified) and give its measured inhibition.
# output 3.25

# input Given the molecule O=C(Nc1c(C(=O)NCc2ccco2)cnn1-c1ccccc1)c1ccc(F)cc1 , what is its reported inhibition?
# output -1.86

# input For CCOC(=O)CNc1ccc2c(c1)OCO2 , what is its reported inhibition?
# output 8.79

# input Consider the molecule Cc1nn(-c2ccc(F)cc2)c(C)c1NS(=O)(=O)c1ccc(Cl)cc1 and give its measured inhibition.
# output 13.3

# input Which inhibition value belongs to CCC(=O)Nc1cc(C(=O)NCC2CCCN2CC)c(OC)cc1N(C)C (stereo unspecified) ?
# output 0.262

# input What value of inhibition has been reported for the following molecule? Cc1ccc(S(=O)(=O)C(C#N)c2nc3ccccc3nc2OC(C)C)cc1 (stereo unspecified)
# output 9.93
